- ASSAY_REMARKS: Measurement of CFZ in tissues
- Format: in vivo, mice
- PROTOCOL_CONDITIONS: male, C57Bl6, mouse, adipose tissue / serum, 10 mg/kg per day; starting at three weeks of oral administration; read-out: CFZ concentration in adipose tissue relative to serum
PROPERTY_LABEL: Kp

Prompt: Look up and state reported Kp for CC(C)/N=c1\cc2n(-c3ccc(Cl)cc3)c3ccccc3nc-2cc1Nc1ccc(Cl)cc1 [CFZ]
Response: > 10000
